Post-emerge Herbicidal Activity CORN (crop damage rating) overview
test system: field corn (Zea mays L., var. Dekalb 535, CORN); assay: Post-emerge test, crop safety; assay type: in vivo; conditions: 63 g ai/ha; post-emerge; 14 days after application; rating scale 0-100
metric: Post-emerge Herbicidal Activity CORN (crop damage rating)

> print(dat)
                                   molecule                            assayed.system  result.value
1  CCOC(=O)C(Cl)Cc1c(OCC)c(Cl)cc(F)c1-n1c(=O)cc(C(F)(F)F)n(C)c1=O (centres unmarked) [14-63]  field corn (Zea mays L., var. Dekalb 535, CORN)            35
2  CCOC(=O)CC(C)=NNc1c(OC)c(Cl)cc(F)c1-n1c(=O)cc(C(F)(F)F)n(C)c1=O [15-16]  field corn (Zea mays L., var. Dekalb 535, CORN)            15
3  COc1c(Cl)cc(F)c(-n2c(=O)cc(C(F)(F)F)n(C)c2=O)c1Sc1ccc2ccccc2c1 [17-4]  field corn (Zea mays L., var. Dekalb 535, CORN)             0
4  COc1c(Cl)cc(F)c(-n2c(=O)cc(C(F)(F)F)n(C)c2=O)c1NNC(=O)Oc1ccccc1 [15-7]  field corn (Zea mays L., var. Dekalb 535, CORN)            60
5  COc1c(Cl)cc(F)c(-n2c(=O)cc(C(F)(F)F)n(C)c2=O)c1NN=CC1CC1 [Compound 15-11]  field corn (Zea mays L., var. Dekalb 535, CORN)            45
6  CCCOC(=O)C(Cl)Cc1c(OCC)c(Cl)cc(F)c1-n1c(=O)cc(C(F)(F)F)n(C)c1=O (centres unmarked) [14-66]  field corn (Zea mays L., var. Dekalb 535, CORN)            90
7  COc1c(Cl)cc(F)c(-n2c(=O)cc(C(F)(F)F)n(C)c2=O)c1SC [Compound 17-1]  field corn (Zea mays L., var. Dekalb 535, CORN)             0
8  COc1c(Cl)cc(F)c(-n2c(=O)cc(C(F)(F)F)n(C)c2=O)c1NNC(=O)C1CC1 [Compound 15-2]  field corn (Zea mays L., var. Dekalb 535, CORN)            15

* * *

system: field corn (Zea mays L., var. Dekalb 535, CORN); experiment: Pre-emerge test, crop safety; type: in vivo; conditions: 250 g ai/ha; pre-emerge; rated 14 days after application; 0 = no damage, 100 = complete death
Exam item: assign fulfilled to entries whose Pre-emerge crop damage CORN (phytotoxicity rating, scale 0-100) is below 90 and not fulfilled to entries at or above 90. Note that a value of exactly 90 receives not fulfilled.

> print(dat)
                                    molecule                            assayed.system  qualitative.label
 1  Cn1c(C(F)(F)F)cc(=O)n(-c2c(F)cc(Cl)c(OCc3ccccc3)c2N)c1=O  field corn (Zea mays L., var. Dekalb 535, CORN)          fulfilled
 2  COc1c(Cl)cc(F)c(-n2c(=O)cc(C(F)(F)F)n(C)c2=O)c1NC(=O)c1cccc(C)c1  field corn (Zea mays L., var. Dekalb 535, CORN)      not fulfilled
 3  CCc1ccc(C(=O)Nc2c(OCC#N)c(Cl)cc(F)c2-n2c(=O)cc(C(F)(F)F)n(C)c2=O)cc1  field corn (Zea mays L., var. Dekalb 535, CORN)          fulfilled
 4  COc1c(Cl)cc(F)c(-n2c(=O)cc(C(F)(F)F)n(C)c2=O)c1NC(=O)c1ccc(C(C)(C)C)cc1  field corn (Zea mays L., var. Dekalb 535, CORN)          fulfilled
 5  COc1c(Cl)cc(F)c(-n2c(=O)cc(C(F)(F)F)n(C)c2=O)c1N1CCCC1  field corn (Zea mays L., var. Dekalb 535, CORN)          fulfilled
 6  COc1c(Cl)cc(F)c(-n2c(=O)cc(C(F)(F)F)n(C)c2=O)c1NC(=O)C=C(C)C  field corn (Zea mays L., var. Dekalb 535, CORN)          fulfilled
 7  COc1c(Cl)cc(F)c(-n2c(=O)cc(C(F)(F)F)n(C)c2=O)c1NC(=O)C(F)(F)F  field corn (Zea mays L., var. Dekalb 535, CORN)          fulfilled
 8  C=CC(=O)N(C(=O)C=C)c1c(OC)c(Cl)cc(F)c1-n1c(=O)cc(C(F)(F)F)n(C)c1=O  field corn (Zea mays L., var. Dekalb 535, CORN)          fulfilled
 9  COc1c(Cl)cc(F)c(-n2c(=O)cc(C(F)(F)F)n(N)c2=O)c1N  field corn (Zea mays L., var. Dekalb 535, CORN)      not fulfilled
10  Cn1c(C(F)(F)F)cc(=O)n(-c2c(N)cc(OC(F)F)cc2F)c1=O  field corn (Zea mays L., var. Dekalb 535, CORN)          fulfilled
11  COc1c(Cl)cc(F)c(-n2c(=O)cc(C(F)(F)F)n(C)c2=O)c1NC(=O)C(C)(C)C  field corn (Zea mays L., var. Dekalb 535, CORN)          fulfilled
12  CCOC(=O)CC(=O)Nc1c(OC(=O)CC(=O)OCC)c(Cl)cc(F)c1-n1c(=O)cc(C(F)(F)F)n(C)c1=O  field corn (Zea mays L., var. Dekalb 535, CORN)          fulfilled
13  CCOC(=O)C(C)Oc1c(Cl)cc(F)c(-n2c(=O)cc(C(F)(F)F)n(C)c2=O)c1N (stereo not shown)  field corn (Zea mays L., var. Dekalb 535, CORN)      not fulfilled
14  COc1c(Cl)cc(F)c(-n2c(=O)c(NC(=O)C(F)(F)F)c(C(F)(F)F)n(C)c2=O)c1NC(=O)C(F)(F)F  field corn (Zea mays L., var. Dekalb 535, CORN)          fulfilled

* * *

test system: upland rice (Oryza sp., var. Tebonnet, RICE); experiment: Post-emerge test, crop safety; type: in vivo; conditions: post-emerge, 63 g ai/ha, 14 days after application, rating scale 0-100
# binarize phytotoxicity rating RICE (crop damage): threshold 30 inclusive, high side YES, low side NO

> print(dat)
                                 smiles.str                            assayed.system  qualitative.label
1  COC(=O)Nc1c(OC)c(Cl)cc(F)c1-n1c(=O)cc(C(F)(F)F)n(C)c1=O  upland rice (Oryza sp., var. Tebonnet, RICE)                 NO
2  COc1c(Cl)cc(F)c(-n2c(=O)cc(C(F)(F)F)n(C)c2=O)c1NC(=O)OCc1ccc(C(F)(F)F)cc1  upland rice (Oryza sp., var. Tebonnet, RICE)                 NO
3  COc1c(Cl)cc(F)c(-n2c(=O)cc(C(F)(F)F)n(C)c2=O)c1NC(=O)OCc1ccc(F)c(F)c1  upland rice (Oryza sp., var. Tebonnet, RICE)                YES
4  COc1ccc(COC(=O)Nc2c(OC)c(Cl)cc(F)c2-n2c(=O)cc(C(F)(F)F)n(C)c2=O)cc1  upland rice (Oryza sp., var. Tebonnet, RICE)                YES
5  Cn1c(C(F)(F)F)cc(=O)n(-c2c(F)cc(Cl)c(OCC#N)c2NC(=O)c2ccc3ccccc3c2)c1=O  upland rice (Oryza sp., var. Tebonnet, RICE)                 NO
6  COc1c(Cl)cc(F)c(-n2c(=O)cc(C(F)(F)F)n(C)c2=O)c1NC(=O)Oc1c(C)cc(C)cc1C  upland rice (Oryza sp., var. Tebonnet, RICE)                 NO
7  COc1c(Cl)cc(F)c(-n2c(=O)cc(C(F)(F)F)n(C)c2=O)c1NC(=O)OCc1cc(C)ccc1C  upland rice (Oryza sp., var. Tebonnet, RICE)                YES
8  Cc1ccccc1COC(=O)Nc1c(C)c(Cl)cc(F)c1-n1c(=O)cc(C(F)(F)F)n(C)c1=O  upland rice (Oryza sp., var. Tebonnet, RICE)                YES
9  COc1c(Cl)cc(F)c(-n2c(=O)cc(C(F)(F)F)n(C)c2=O)c1NC(=O)OCc1ccc(C)c(C)c1  upland rice (Oryza sp., var. Tebonnet, RICE)                 NO

* * *

Reported Pre-emerge herbicidal activity, phytotoxicity rating IPOHE is given for each of the following compounds.
tested on: ivyleaf morningglory (Ipomoea hederacea, IPOHE); experiment: Pre-emerge test, greenhouse herbicide activity screening; type: in vivo; conditions: 250 g ai/ha; rating scale 0-100, 14 days after application
metric: Pre-emerge herbicidal activity, phytotoxicity rating IPOHE

> print(dat)
                                    compound  result.value
 1  COc1c(Cl)cc(F)c(-n2c(=O)cc(C(F)(F)F)n(C)c2=O)c1CC(Cl)C(=O)OCCOc1ccccc1 (single isomer, unassigned) [14-27]             0
 2  CCCOC(=O)C(C)(Cl)Cc1c(OC)c(Cl)cc(F)c1-n1c(=O)cc(C(F)(F)F)n(C)c1=O (centres unmarked) [14-35]             0
 3  COc1c(Cl)cc(F)c(N2C(=O)c3ccccc3C2=O)c1NC(=O)c1ccc(F)cc1F [13-4]            90
 4  COc1c(Cl)cc(F)c(-n2c(=O)cc(C(F)(F)F)n(C)c2=O)c1CC(Cl)C(=O)OCC(F)(F)F (centres unmarked) [14-21]             0
 5  CCCCCOC(=O)C(Cl)Cc1c(OC)c(Cl)cc(F)c1-n1c(=O)cc(C(F)(F)F)n(C)c1=O (single isomer, unassigned) [14-10]            70
 6  COc1c(Cl)cc(F)c(N2C(=O)c3ccccc3C2=O)c1NC(=O)c1ccc2ccccc2c1 [Compound 13-3]             0
 7  COc1c(Cl)cc(F)c(-n2c(=O)cc(C(F)(F)F)n(C)c2=O)c1CC(Cl)C(=O)OCC(C)C (single isomer, unassigned) [14-14]            20
 8  COCCOC(=O)C(C)(Cl)Cc1c(OC)c(Cl)cc(F)c1-n1c(=O)cc(C(F)(F)F)n(C)c1=O (centres unmarked) [14-47]             0
 9  C#CCOC(=O)C(Cl)Cc1c(OC)c(Cl)cc(F)c1-n1c(=O)cc(C(F)(F)F)n(C)c1=O (single isomer, unassigned) [14-19]             0
10  CCOC(=O)C(Cl)Cc1c(OC)c(Cl)cc(F)c1-n1c(=O)cc(C(F)(F)F)n(C)c1=O (single isomer, unassigned) [Compound 14-5]            30
11  CCCCCCOC(=O)C(C)(Cl)Cc1c(OC)c(Cl)cc(F)c1-n1c(=O)cc(C(F)(F)F)n(C)c1=O (centres unmarked) [14-38]             0
12  COc1c(Cl)cc(F)c(-n2c(=O)cc(C(F)(F)F)n(C)c2=O)c1CC(Cl)C(=O)OCC(Br)CBr (single isomer, unassigned) [14-31]            50
13  COCCOC(=O)C(Cl)Cc1c(OC)c(Cl)cc(F)c1-n1c(=O)cc(C(F)(F)F)n(C)c1=O (centres unmarked) [14-25]           100
14  O=C(Nc1cc(Cl)ccc1N1C(=O)c2ccccc2C1=O)c1ccc2ccccc2c1 [Compound 13-5]             0
